Data provenance is ChEMBL document CHEMBL1131293.

Tested System: Sigma non-opioid intracellular receptor 1 (Rattus norvegicus) (UniProt Q9R0C9)
Sequence (Q9R0C9 whole entry): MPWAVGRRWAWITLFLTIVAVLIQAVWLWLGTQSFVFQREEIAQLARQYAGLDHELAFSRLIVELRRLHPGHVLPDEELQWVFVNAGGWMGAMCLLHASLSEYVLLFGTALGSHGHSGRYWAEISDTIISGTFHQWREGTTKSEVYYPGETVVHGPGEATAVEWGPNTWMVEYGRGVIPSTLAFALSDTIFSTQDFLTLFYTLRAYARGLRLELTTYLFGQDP
Test Summary: IC50 ratio; sigma 2 to sigma 1
Run Parameters: Cavia porcellus
Task for the reader: assign each of the following compounds its reported Ratio.
Respond using a number only.

Given the compound COc1cccc2c1CCCC2CCCN1CCCC(C)(C)C1 (single isomer, unassigned; (+)) and test system Sigma non-opioid intracellular receptor 1 (Rattus norvegicus) (UniProt Q9R0C9), the measured Ratio is 1340

Given the compound CC1(C)CCCN(CCCCC2CCCc3ccccc32)C1 (centres undefined) and test system Sigma non-opioid intracellular receptor 1 (Rattus norvegicus) (UniProt Q9R0C9), the measured Ratio is 8

Given the compound CC1(C)CCCN(CCCC2CCc3ccccc32)C1 (centres undefined) and test system Sigma non-opioid intracellular receptor 1 (Rattus norvegicus) (UniProt Q9R0C9), the measured Ratio is 0.6

Given the compound COc1cccc2c1CCCC2CCCN1CCCC(C)(C)C1 (racemic) and test system Sigma non-opioid intracellular receptor 1 (Rattus norvegicus) (UniProt Q9R0C9), the measured Ratio is 287

----------
Tested System: Sigma 2 receptor
Test Summary: Evaluated for the binding affinity towards sigma 2 receptor by displacing the radioligand [3H]DTG in guinea-pig brain cortex.
pIC50: −log10 of the molar value.
Decide by pIC50: equal to or exceeding 8 means rule met, less means rule not met.

Is it the case that CC1(C)CCCN(CCCCC2=CCCc3ccccc32)C1 has pIC50 reaching or exceeding 8?
rule met

Is it the case that CC1(C)CCCN(CCCC2CCc3ccccc32)C1 (configuration not stated) has pIC50 reaching or exceeding 8?
rule met

Is it the case that COc1ccc2c(c1)CCC2CCCN1CCCC(C)(C)C1 (configuration not stated) has pIC50 reaching or exceeding 8?
rule met

Is it the case that COc1ccc2c(c1)C(CCCCN1CCCC(C)(C)C1)CCC2 (configuration not stated) has pIC50 reaching or exceeding 8?
rule met

Is it the case that COc1cccc2c1CCCC2CCCN1CCCC(C)(C)C1 (stereo in doubt; (-)-22) has pIC50 reaching or exceeding 8?
rule not met

Is it the case that CC1(C)CCCN(CCCCC2CCCc3ccccc32)C1 (configuration not stated) has pIC50 reaching or exceeding 8?
rule met

Is it the case that COc1ccc2c(c1)CCCC2CCCCN1CCCC(C)(C)C1 (configuration not stated) has pIC50 reaching or exceeding 8?
rule met

Is it the case that CC1(C)CCCN(CCCC2=CCc3ccccc32)C1 has pIC50 reaching or exceeding 8?
rule met

Is it the case that CC1(C)CCCN(CCCC2CCCc3c(O)cccc32)C1 (configuration not stated) has pIC50 reaching or exceeding 8?
rule not met

Is it the case that CC1(C)CCCN(CCC2CCCc3ccccc32)C1 (configuration not stated) has pIC50 reaching or exceeding 8?
rule met

Is it the case that COc1ccc2c(c1)CCCC2CCCN1CCCC(C)(C)C1 (configuration not stated) has pIC50 reaching or exceeding 8?
rule not met

Is it the case that CC1(C)CCCN(CCCCCC2CCCc3ccccc32)C1 (configuration not stated) has pIC50 reaching or exceeding 8?
rule met

----------
Tested System: Sigma non-opioid intracellular receptor 1 (Rattus norvegicus)
Test Summary: IC50 ratio; sigma 1 to sigma 2
Run Parameters: Cavia porcellus
Task for the reader: assign each of the following compounds its reported Ratio.
Respond using a number only.

Record COc1cccc2c1CCCC2CCCCN1CCCC(C)(C)C1 (centres undefined) . Reported Ratio: 8

Record COc1cccc2c1CCC2CCCCN1CCCC(C)(C)C1 (centres undefined) . Reported Ratio: 2

Record CC1(C)CCCN(CCCC2CCCc3ccccc32)C1 (centres undefined) . Reported Ratio: 2

Record COc1ccc2c(c1)CCC2CCCN1CCCC(C)(C)C1 (centres undefined) . Reported Ratio: 4610

Record CC1(C)CCCN(CCCCC2=CCCc3ccccc32)C1 . Reported Ratio: 8590

Record CC1(C)CCCN(CCCCCc2ccccc2)C1 . Reported Ratio: 583

Record COc1ccc2c(c1)CCCC2CCCCCN1CCCC(C)(C)C1 (centres undefined) . Reported Ratio: 21

Record COc1ccc2c(c1)C(CCCCN1CCCC(C)(C)C1)CCC2 (centres undefined) . Reported Ratio: 58

Record CC1(C)CCCN(CCCC2=CCc3ccccc32)C1 . Reported Ratio: 1

Record CC1(C)CCCN(CCCC2CCc3ccccc32)C1 (centres undefined) . Reported Ratio: 1.5
